- study target: T1, human IL-6 (Homo sapiens, UniProt P05231)
- T1 construct: host or cells: IL-6 added from outside to murine 7TD1 hybridoma cells
- T1 sequence (P05231 30-212): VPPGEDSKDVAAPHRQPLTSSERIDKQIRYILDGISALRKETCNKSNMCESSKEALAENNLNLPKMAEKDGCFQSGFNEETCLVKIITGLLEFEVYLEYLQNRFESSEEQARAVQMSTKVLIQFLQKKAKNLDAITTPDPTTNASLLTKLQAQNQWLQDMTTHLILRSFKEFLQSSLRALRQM
- procedure summary: IL-6 neutralizing bioassay, 7TD1 cell proliferation
- Assay type: cell-based
- measurement context: Exp 29.06 (7TD1); relative to 68F2
So I've got a bunch of molecules here, and I need their Rel. Potency values.
One number for each entry.

# example entries with known answers
molecule: 68F2 (Large batch) (antibody, V domains shown) VH: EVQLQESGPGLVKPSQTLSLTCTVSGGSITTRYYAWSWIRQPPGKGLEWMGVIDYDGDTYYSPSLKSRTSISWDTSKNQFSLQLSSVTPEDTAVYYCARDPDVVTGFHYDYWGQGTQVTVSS VL: QSALTQPPLVSGTPGQTVTISCAGANNDIGTYAYVSWYQQLPGTAPKLLIYKVTTRASGIPSRFSGSKSGNTASLTISGLQSEDEADYYCASYRNFNNAVFGRGTHLTVLG
Rel. Potency: 0.43

molecule: 68F2 (#12.9) (antibody, V domains shown) VH: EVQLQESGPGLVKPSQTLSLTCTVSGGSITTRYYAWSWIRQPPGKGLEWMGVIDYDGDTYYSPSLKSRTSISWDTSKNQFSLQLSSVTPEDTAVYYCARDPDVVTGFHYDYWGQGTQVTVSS VL: QSALTQPPLVSGTPGQTVTISCAGANNDIGTYAYVSWYQQLPGTAPKLLIYKVTTRASGIPSRFSGSKSGNTASLTISGLQSEDEADYYCASYRNFNNAVFGRGTHLTVLG
Rel. Potency: 1.08

Which Rel. Potency value belongs to 128G3 (17.06) (antibody, V domains shown) VH: EVQLQESGPGLVKPSQTLSLTCTVSGGSITTRYYAWSWIRQPPGKGLEWIGVIDYDGDTYYSPSLKSRTTISVDTSKNQFSLKLSSVTPEDTAVYYCARDPDVVTGFHYDYWGQGTMVTVSS VL: QSALTQPPSVSGAPGQTVTISCAGANNDIGTYAYVSWYQQLPGTAPKLLIYKVTTRASGVPDRFSGSKSGNTASLAISGLQAEDEADYYCASYRNFNNAVFGGGTHLTVL ?
0.52
